Values were extracted from patent US20090221680.

target: prothrombin (Homo sapiens, UniProt P00734 P00734:44-622); assay: filter; 50 nM prothrombin; conditions: tags: Athens Research
Label rule, in plain words: binding signal of 40 % bound and up is Criterion met, under 40 % bound is Criterion not met.

Answered cases to consult:
# binder, cat
rows = [
    ("TCCCTGGTATCGTATCCAAAGGGGTGGTGTGGGTGGCTGAGGATCGATC (ssDNA) [AMX(399)_H8]", "Criterion not met"),
    ("TCCCTATGGATTCGGGGTACGTTAGTTCTGGGTGGCTGAGGATCGATC (ssDNA) [AMX(399)_F11]", "Criterion not met"),
    ("TCCCTAGATCGGGTCCTGGTAGTGTTTCTGGGTGGCTGAGGATCGATC (ssDNA) [AMX(399)_F5]", "Criterion met"),
    ("TCCCGAGTGATCCGGGGTGTTTTTTTGGGTTGGGTGGCTGAGGATCGATC (ssDNA) [AMX(398)_E3]", "Criterion met"),
    ("TCCCCATCGATCCTGGTCTCTTTTGTTCTGGGTGGCTGAGGATCGATC (ssDNA) [AMX(399)_G11]", "Criterion not met"),
]

Is the recorded value of binding signal equal to or greater than 40 % bound for this binder? TCCCTCGATCTTGGGGTACTATAGTGGTGTGGGTGGCTGAGGATCGATC (ssDNA) [AMX(398)_B10]
Criterion not met

Is the recorded value of binding signal equal to or greater than 40 % bound for this binder? TCCTGTCGATCCCTACGGGTAGTGTTGGTTTGGGTGGCTGAGGATCGATC (ssDNA) [AMX(399)_B9]
Criterion not met

Is the recorded value of binding signal equal to or greater than 40 % bound for this binder? TCCCTTGTCGATTCTGGTATGTTTTGGTCCGGGTGGCTGAGGATCGATC (ssDNA) [AMX(398)_D7]
Criterion not met

Is the recorded value of binding signal equal to or greater than 40 % bound for this binder? TCCCAATCGGTCCTGGTAATATATTGGTCGGGGTGGCTGAGGATCGATC (ssDNA) [AMX(399)_H3]
Criterion met

Is the recorded value of binding signal equal to or greater than 40 % bound for this binder? TCCCAAGATCGATGCTGGTAGTGTTTTCTGGGTGGCTGAGGATCGATC (ssDNA) [AMX(399)_F6]
Criterion not met

Is the recorded value of binding signal equal to or greater than 40 % bound for this binder? TCCCATCGATCTGTGGTCTTTTTTGGTGTGGGTGGCTGAGGATCGATC (ssDNA) [AMX(399)_D12]
Criterion not met
